MEASUREMENT_NOTES: Plasma concentration in APPswe/PS1dE9 double mutant-transgenic mouse at 30 mg/kg, ip administered as single dose measured after 2 hrs by LC-MS/MS analysis
Type: ADME, organism-based
MEASUREMENT_TYPE: concentration at 2 h (ng/mL)
The figure you give is taken to be in ng/mL; do not add the unit.

Ask: What value of concentration at 2 h has been recorded for this entry: `O=C1N/C(=N/c2ccccc2Cl)S/C1=C1\C(=O)Nc2ccc(F)cc21`
Result: 1200

###

MEASUREMENT_NOTES: Mean residence time in APPswe/PS1dE9 double mutant-transgenic mouse at 30 mg/kg, ip administered as single dose by LC-MS/MS analysis
Type: ADME, organism-based
TEST_SETTINGS: in vivo
MEASUREMENT_TYPE: MRT (h)
Answer with a number only, understood to be in h.

Ask: What value of measured MRT is listed for `O=C1N/C(=N/c2ccccc2Cl)S/C1=C1\C(=O)Nc2ccc(F)cc21` ?
Result: 2.78

###

MEASUREMENT_NOTES: Mean residence time in APPswe/PS1dE9 double mutant-transgenic mouse at 3 mg/kg, iv administered as single dose by LC-MS/MS analysis
Format: ADME, organism-based
TEST_SETTINGS: in vivo
MEASUREMENT_TYPE: MRT
Number first, unit second.

Ask: Query (compound): `O=C1N/C(=N/c2ccccc2Cl)S/C1=C1\C(=O)Nc2ccc(F)cc21` ; field requested: MRT
Result: 1.61 h

###

MEASUREMENT_NOTES: Inhibition of recombinant human DDR1 V833L mutant (492 to end residues) using KKKSPGEYVNIEFG as substrate measured after 40 mins in presence of [gamma33P]ATP by scintillation counting analysis
MEASUREMENT_TYPE: pIC50
In plain terms, pIC50 is the concentration in mol/L turned into minus its base-10 logarithm.

Ask: Requested field: pIC50. Item: `O=C1Nc2ccccc2N/C1=C\C(=O)c1cccc2ccccc12`
Result: 6.80

###

MEASUREMENT_NOTES: Plasma concentration in APPswe/PS1dE9 double mutant-transgenic mouse at 30 mg/kg, ip administered as single dose measured after 8 hrs by LC-MS/MS analysis
Type: ADME, organism-based
MEASUREMENT_TYPE: concentration at 8 h (ng/mL)
Respond numerically; units are ng/mL and should not be typed.

Ask: What does the record list as concentration at 8 h for `O=C1N/C(=N/c2ccccc2Cl)S/C1=C1\C(=O)Nc2ccc(F)cc21` ?
Result: 78.1

###

MEASUREMENT_NOTES: Drug level in APPswe/PS1dE9 double mutant-transgenic mouse brain at 30 mg/kg, ip administered as single dose measured after 2 hrs by LC-MS/MS analysis
Assay type: ADME, organism-based
TEST_SETTINGS: read-out: Drug uptake
MEASUREMENT_TYPE: concentration at 2 h (ng/g)
Give just the numeric value; ng/g need not be written.

Ask: Any idea what concentration at 2 h was measured for `O=C1N/C(=N/c2ccccc2Cl)S/C1=C1\C(=O)Nc2ccc(F)cc21` ?
Result: 158

###

MEASUREMENT_NOTES: Terminal half life in APPswe/PS1dE9 double mutant-transgenic mouse at 30 mg/kg, ip administered as single dose by LC-MS/MS analysis
Type: ADME, organism-based
TEST_SETTINGS: in vivo, read-out: beta t1/2 (converted)
MEASUREMENT_TYPE: half-life (h)
I only need the number, in h, no unit after it.

Ask: So what does the record say about half-life for `O=C1N/C(=N/c2ccccc2Cl)S/C1=C1\C(=O)Nc2ccc(F)cc21` ?
Result: 16.1

Measured values drawn from ChEMBL document CHEMBL4359842 for this set.
